Values compiled from ChEMBL document CHEMBL5331071.

biological target: Stimulator of interferon genes protein (Homo sapiens); assay: Agonist activity at STING in human THP1-Dual cells incubated for 20 hrs by Quanti-luc reagent based assay; type: cell-based
measured property: EC50 (µM)

INSERT INTO results (cpd_smiles, measured_property, readout_unit, measured_number) VALUES
  ('CCn1nc(C)cc1C(=O)Nc1nc2cc(C(N)=O)cc(OC)c2n1NCCCC(=O)NCc1ccc(OC)cc1', 'EC50', 'µM', 4.1);

a. CCn1nc(C)cc1C(=O)Nc1nc2cc(C(N)=O)cc(OCC3COC3)c2n1NCCCNC(=O)c1ccc2ccccc2c1
b. CCn1nc(C)cc1C(=O)Nc1nc2cc(C(N)=O)cc(OCC3CC3)c2n1NCCCNC(=O)c1ccc2ccccc2c1
Which has the smaller recorded EC50, a or b ? Identify your pick by its label. b

###

target: Stimulator of interferon genes protein (Mus musculus, UniProt Q3TBT3); test: Agonist activity at STING in mouse RAW-Lucia ISG cells by luciferase gene reporter assay
Sequence (Q3TBT3 whole entry): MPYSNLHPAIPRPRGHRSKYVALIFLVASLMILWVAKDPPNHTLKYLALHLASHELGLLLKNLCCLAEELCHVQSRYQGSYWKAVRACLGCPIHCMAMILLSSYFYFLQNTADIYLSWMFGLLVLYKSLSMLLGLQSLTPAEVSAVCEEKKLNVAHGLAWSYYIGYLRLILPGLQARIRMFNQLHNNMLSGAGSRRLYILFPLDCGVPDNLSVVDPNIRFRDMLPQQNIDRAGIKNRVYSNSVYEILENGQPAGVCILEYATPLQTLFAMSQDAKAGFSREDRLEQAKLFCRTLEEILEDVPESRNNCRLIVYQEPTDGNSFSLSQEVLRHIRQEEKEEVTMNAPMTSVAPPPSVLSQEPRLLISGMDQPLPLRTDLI
measured property: EC50

Need EC50, item `CCn1nc(C)cc1C(=O)Nc1nc2cc(C(N)=O)cc(OC)c2n1NCCCC(=O)NCc1ccc(F)cc1` > 100 µM

###

target: Stimulator of interferon genes protein (Homo sapiens); experiment: Activation of STING signalling pathway in human PBMC cells assessed as increase in IL-6 level incubated for 4 hrs by ELISA method; format: cell-based
measured property: EC50 (nM)
Write the answer as a number in nM, unit excluded.

I have this compound here, `CCn1nc(C)cc1C(=O)Nc1nc2cc(C(N)=O)cc(OC)c2n1NCCCC(=O)NCc1ccc(F)cc1` , and I need its recorded EC50. 30

###

target: UniProt:Q86WV6; assay: Activation of STING signalling pathway in human wild type THP-1 cells assessed as increase in IFN-beta secretion incubated for 4 hrs by ELISA method; type: cell-based
measured property: EC50 (µM)
API: value field is a number in µM; no unit string.

GET /values?readout=EC50&item= `CCn1nc(C)cc1C(=O)Nc1nc2cc(C(N)=O)cc(OC)c2n1NCCCC(=O)NCc1ccc(F)cc1` 4.74

###

molecular target: Stimulator of interferon genes protein (Homo sapiens, UniProt Q86WV6); assay: Agonist activity at STING in human THP1-Dual cells incubated for 20 hrs by Quanti-luc reagent based assay; assay type: cell-based
Sequence (Q86WV6 whole entry): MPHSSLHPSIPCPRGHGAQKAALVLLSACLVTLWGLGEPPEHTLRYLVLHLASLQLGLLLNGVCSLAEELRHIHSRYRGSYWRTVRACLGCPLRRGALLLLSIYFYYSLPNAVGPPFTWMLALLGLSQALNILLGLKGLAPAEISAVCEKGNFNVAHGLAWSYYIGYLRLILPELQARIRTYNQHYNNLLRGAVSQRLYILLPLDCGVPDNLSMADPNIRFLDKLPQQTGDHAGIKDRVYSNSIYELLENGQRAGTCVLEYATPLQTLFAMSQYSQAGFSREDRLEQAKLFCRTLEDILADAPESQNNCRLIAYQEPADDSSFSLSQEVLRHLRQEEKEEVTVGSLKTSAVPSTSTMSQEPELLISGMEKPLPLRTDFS
measured property: EC50 (µM)

INSERT INTO assay_data (cpd_smiles, measured_property, measured_number) VALUES
  ('CCn1nc(C)cc1C(=O)Nc1nc2cc(C(N)=O)cc(OCC3COC3)c2n1NCCCC(=O)NCc1ccc(F)cc1', 'EC50', 7.13),
  ('CCn1nc(C)cc1C(=O)Nc1nc2cc(C(N)=O)cc(OC)c2n1NCCCC(=O)NCc1cc(F)cc(F)c1', 'EC50', 5.14);

I. CCn1nc(C)cc1C(=O)Nc1nc2cc(C(N)=O)cc(OC)c2n1NCCCC(=O)NCc1ccc(Br)cc1F
II. CCn1nc(C)cc1C(=O)Nc1nc2cc(C(N)=O)cc(OCCCOC)c2n1NCCCNC(=O)c1ccc2ccccc2c1
Consider entries I and II . Which has the numerically lower EC50? Output the label that corresponds to your choice. II

###

target: Stimulator of interferon genes protein (Homo sapiens); test: Agonist activity at STING in human THP1-Dual cells incubated for 20 hrs by Quanti-luc reagent based assay; type: cell-based
measured property: EC50

INSERT INTO assay_data (cpd_smiles, result) VALUES
  ('CCn1nc(C)cc1C(=O)Nc1nc2cc(C(N)=O)cc(OC)c2n1C/C=C/Cn1c(C(F)(F)F)nc2cc(C(N)=O)ccc21', '> 100 µM'),
  ('CCn1nc(C)cc1C(=O)Nc1nc2cc(C(N)=O)cc(OC)c2n1C/C=C/Cn1c(C)nc2cc(C(N)=O)ccc21', '> 100 µM'),
  ('CCn1nc(C)cc1C(=O)Nc1nc2cc(C(N)=O)cc(OC)c2n1C/C=C/CNC(=O)c1cc(F)nc(F)c1', '> 100 µM');

Now take the following molecule into account.
// returns reported EC50 for input `CCn1nc(C)cc1C(=O)Nc1nc2cc(C(N)=O)cc(OC)c2n1C/C=C/CNC(=O)c1ccc2ncccc2c1` > 100 µM
